system: CCRF-CEM; experiment: NCI tumour cell line growth inhibition, 48 h
Calls of active or inactive are those of the source. Rule as the data show it: active = GI50 up to about 1.1 µM and inactive = higher.
READOUT LABEL: GI50

Observe how each entry below is paired with its result.
[[record]]
compound = "CCC/N=C1\\S/C(=C/c2ccc(OC)c(OC)c2)C(=O)N1c1ccccc1"
test_result = "58.7 µM (inactive)"

[[record]]
compound = "CC(=O)O[C@]12CCCCCC1C1(O)C(O)CCC[C@H]12 (stereo not given in full)"
test_result = "> 100 µM (inactive)"

[[record]]
compound = "O=c1c2c(c1=O)C1(SCCCS1)c1cc(Cl)ccc1O2"
test_result = "> 100 µM (inactive)"

[[record]]
compound = "CC(C)(C)OC(=O)N1CC(COS(C)(=O)=O)c2ccc(O)cc21 (stereo not given)"
test_result = "0.455 µM (active)"

[[record]]
compound = "COc1ccc(NC(=S)c2ccc(CN3CCCCC3)s2)cc1"
test_result = "14.8 µM (inactive)"

[[record]]
compound = "Nn1c(Cc2ccc([N+](=O)[O-])cc2)n[nH]c1=O"
test_result = "> 100 µM (inactive)"


Lookup: Entry Cc1cn(C2CC(N=[N+]=[N-])C(C(=O)O)O2)c(=O)[nH]c1=O (stereo not given) : reported GI50 = ?
Found: > 100 µM (inactive)

Lookup: Entry "O=C1O[C@H](COC(=O)c2ccccc2)[C@@H](OC(=O)c2ccccc2)C=C1OC(=O)c1ccccc1" : reported GI50 = ?
Found: 14.1 µM (inactive)

Lookup: Entry "CN(C)c1ccc(/C=C2\Oc3cc(O)ccc3C2=O)cc1" : reported GI50 = ?
Found: 69.5 µM (inactive)

Lookup: Entry CC1(C)CC(O)C(C)(C)[C@@H](O)C1 (stereo not given in full) : reported GI50 = ?
Found: > 100 µM (inactive)
